Target: MIF (Homo sapiens)
Sequence (P14174 2-115 limits assumed): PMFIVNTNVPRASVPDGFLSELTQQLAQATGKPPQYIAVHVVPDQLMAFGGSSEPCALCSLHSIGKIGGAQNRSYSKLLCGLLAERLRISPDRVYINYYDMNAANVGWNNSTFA
Assay: MIF degradation in A549 cells, cell lysate-based ELISA
Parameters: endogenous in cells; host or cells: A549 (ATCC CCL-185)
Conditions: A549, 12 h, A549 cells, 20 µM, 12 h, vs DMSO, mean±SD n=3
READOUT LABEL: Dmax at 20 µM (%)

Worked cases, answers included:
O=C1CCC(N2C(=O)c3cccc(NC(=O)CCCCc4cn(CCC(=O)Nc5ccc(-c6cc7ccc(O)cc7oc6=O)cc5)nn4)c3C2=O)C(=O)N1 (stereo not shown) :: 58
O=C1CCC(N2C(=O)c3cccc(NCCCCCCC(=O)Nc4ccc(N5Cc6ccc(O)cc6OC5=O)cc4)c3C2=O)C(=O)N1 (stereo not shown) :: 92

[P] O=C1CCC(N2C(=O)c3cccc(NC(=O)CCCCc4cn(CC(=O)Nc5ccc(-c6cc7ccc(O)cc7oc6=O)cc5)nn4)c3C2=O)C(=O)N1 (stereo not shown)
[Q] O=C1CCC(N2C(=O)c3cccc(NC(=O)CCCc4cn(CC(=O)Nc5ccc(-c6cc7ccc(O)cc7oc6=O)cc5)nn4)c3C2=O)C(=O)N1 (stereo not shown)
Inquiry: I'm curious, which of these has a smaller Dmax at 20 µM number: P or Q ? Lab log: write the label of the selected item as the result.
Reply text: Q
